Consider the following molecules; for each one, report its pEC50.
# assay target: fMet-Leu-Phe receptor (Homo sapiens, UniProt P21462)
# Sequence (P21462 whole entry): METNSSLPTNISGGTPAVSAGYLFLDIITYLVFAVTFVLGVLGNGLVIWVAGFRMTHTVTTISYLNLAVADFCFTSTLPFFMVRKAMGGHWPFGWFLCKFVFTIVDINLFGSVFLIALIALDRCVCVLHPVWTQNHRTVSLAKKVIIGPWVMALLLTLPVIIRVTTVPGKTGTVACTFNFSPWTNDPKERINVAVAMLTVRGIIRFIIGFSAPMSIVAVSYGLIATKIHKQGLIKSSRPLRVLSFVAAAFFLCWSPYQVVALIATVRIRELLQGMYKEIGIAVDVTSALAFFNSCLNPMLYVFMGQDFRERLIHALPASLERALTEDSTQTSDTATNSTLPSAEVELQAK
# assay info: Agonist activity at human FPR1 transfected in CHO cells by cAMP assay
# Format: functional, cell-based
pEC50: −log10 of the molar value.

Which value of pEC50 has been reported for "COc1cc(OC)cc(-n2c(=O)c(NC(=O)c3ccc(OC(F)F)cc3)c(-c3c(F)cc(OC)cc3F)n2C)c1" in the records?
8.00

Which value of pEC50 has been reported for "COc1cc(F)c(-c2c(NC(=O)c3ccc(OC(F)F)cc3)c(=O)n(-c3ccccn3)n2C)c(F)c1" in the records?
< 8.00

Which value of pEC50 has been reported for "COc1cc(C2CCNCC2)nc(-n2c(=O)c(NC(=O)c3ccc(OC(F)F)cc3)c(-c3c(F)cc(OC)cc3F)n2C)c1" in the records?
< 5.00

Which value of pEC50 has been reported for "COc1cc(-n2c(=O)c(NC(=O)c3ccc(OC(F)F)cc3)c(-c3c(F)cc(OC)cc3F)n2C)cc(C(F)(F)F)c1" in the records?
< 8.00

* * *

# assay target: N-formyl peptide receptor 2 (Homo sapiens, UniProt P25090)
# Sequence (P25090 whole entry): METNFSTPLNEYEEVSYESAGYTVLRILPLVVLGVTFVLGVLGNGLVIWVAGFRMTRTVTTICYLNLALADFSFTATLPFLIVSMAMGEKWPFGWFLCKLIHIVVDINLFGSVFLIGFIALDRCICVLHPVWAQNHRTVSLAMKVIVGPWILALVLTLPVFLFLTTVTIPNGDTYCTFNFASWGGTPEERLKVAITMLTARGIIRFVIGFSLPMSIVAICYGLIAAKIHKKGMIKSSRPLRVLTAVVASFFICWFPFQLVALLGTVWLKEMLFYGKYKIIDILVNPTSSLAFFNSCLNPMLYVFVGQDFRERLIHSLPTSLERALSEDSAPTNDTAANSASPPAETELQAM
# assay info: Agonist activity at FPR2 (unknown origin) expressed in CHO cells assessed as Calcium mobilization incubated for 30 min by fluorometry method
# Type: functional, cell-based
endpoint name: EC50 (nM)
Field format: number, assumed nM, no unit text.

Which value of EC50 has been reported for "Ac-AMVSEFLKQAWIENEEQEYVVQTVK-OH" in the records?
1800

* * *

# assay target: N-formyl peptide receptor 2 (Homo sapiens, UniProt P25090)
# assay info: Agonist activity at FPR2 (unknown origin) expressed in CHO cells by cAMP assay
# Type: functional, cell-based
Consider the following compounds; for each one, report its EC50.

Which value of EC50 has been reported for COCCN1CC[C@H](NC(=O)Nc2ccc(Cl)cc2)[C@@H](c2c(F)cc(OC)cc2F)C1 (racemic) in the records?
< 1 nM

Which value of EC50 has been reported for "Cc1ccc(NC(=O)N[C@@H]2CCCN(c3ccc(-c4ccccc4C(N)=O)cc3)C2=O)cc1" in the records?
< 5 nM

Which value of EC50 has been reported for COc1cc(F)c([C@H]2CC(=O)NC[C@@H]2NC(=O)Nc2ccc(Cl)cc2)c(F)c1 (racemic) in the records?
< 1 nM
